test: RP, Waters ACQUITY UPLC BEH C18, 100 × 2.1 mm, 1.7 µm, 0.3 mL/min, estimated dead time 0.73 min; A: water + 0.1% formic acid, pH 3; B: methanol + 0.1% formic acid, pH 3; gradient (min/%B) 0/10 14/90 16/90 18/10; settings: stereoisomer not certain
Here, each record is paired with measured LC retention time data.
Number in min, nothing else.

Examples from the recorded data:
- MOLECULE: "CC(=O)Nc1ccc(O)cc1 [Acetaminophen]"
  MEASUREMENT UNIT: "min"
  LC retention time: 2.4
- MOLECULE: "O=C(NC(=O)c1c(F)cccc1F)Nc1ccc(Oc2ccc(C(F)(F)F)cc2Cl)cc1F [Flufenoxuron]"
  MEASUREMENT UNIT: "min"
  LC retention time: 13.5
- MOLECULE: "Cc1nn(C)c(Oc2ccccc2)c1C=NOCc1ccc(C(=O)OC(C)(C)C)cc1 [Fenpyroximate]"
  MEASUREMENT UNIT: "min"
  LC retention time: 13.7
- MOLECULE: "Cn1cc(-c2ccccc2)c(=O)c(-c2cccc(C(F)(F)F)c2)c1 [Fluridone]"
  MEASUREMENT UNIT: "min"
  LC retention time: 9.63
- MOLECULE: "OC(CCCN1CCN(c2ccccn2)CC1)c1ccc(F)cc1 (stereo unspecified) [Azaperol]"
  MEASUREMENT UNIT: "min"
  LC retention time: 4.96

Data point: CC1(C)C(C=C(Br)Br)C1C(=O)OC(C#N)c1cccc(Oc2ccccc2)c1 (stereo unspecified) [Deltamethrin] ; LC retention time = 14

Data point: CCC1OC(=O)C(C)C(OC2CC(C)(OC)C(O)C(C)O2)C(C)C(OC2OC(C)CC(N(C)C)C2O)C(C)(O)CC(C)CN(C)C(C)C(O)C1(C)O (stereo unspecified) [Azithromycin] ; LC retention time = 6.2

Data point: CC12CCC(=O)C=C1CCC1C2C(O)CC2(C)C(C(=O)CO)CCC12 (stereo unspecified) [Corticosterone] ; LC retention time = 9.37

Data point: O=C(Nc1ccc(F)cc1F)c1cccnc1Oc1cccc(C(F)(F)F)c1 [Diflufenican] ; LC retention time = 12.7

Data point: COc1nc(C)nc(NC(=O)NS(=O)(=O)c2ccccc2OCCCl)n1 [Triasulfuron] ; LC retention time = 6.67
